# METHOD_NOTES: Single dose intraperitoneal pharmacokinetics in CD-1 mice, plasma concentration by HPLC-MS
# Assay type: in vivo
# CONDITIONS_USED: female, CD-1, mouse, ip, 10 mg/kg, 2 hr, 10 mg/kg IP, CD-1 mice, n=3, read-out: Mean concentration
QUANTITY: concentration at 2 h
State the result as a value with its unit after it.

// CC#C[C@]1(O)CC[C@H]2[C@@H]3CCC4=CC(=O)CCC4=C3[C@@H](c3ccc(N(C)CCCC(=O)N4CCN(C(=O)OC(C)(C)C)CC4C(=O)N4CCN(C(=O)OC(C)(C)C)CC4C(=O)NCCCOCCOCCOCCCNc4cccc5c4C(=O)N(C4CCC(=O)NC4=O)C5=O)cc3)C[C@@]21C (stereo partly shown) : concentration at 2 h value = 2200 nM

###

# METHOD_NOTES: Single dose intraperitoneal pharmacokinetics in CD-1 mice, plasma concentration by HPLC-MS
# Format: in vivo
# CONDITIONS_USED: female, CD-1, mouse, ip, 10 mg/kg, 24 hr, 10 mg/kg IP, CD-1 mice, individual animals, read-out: Individual concentration
QUANTITY: concentration at 24 h (nM)
Write the answer as a number in nM, unit excluded.

// CC#C[C@]1(O)CC[C@H]2[C@@H]3CCC4=CC(=O)CCC4=C3[C@@H](c3ccc(N(C)CCCC(=O)N4CCN(C(=O)OC(C)(C)C)CC4C(=O)N4CCN(C(=O)OC(C)(C)C)CC4C(=O)NCCCOCCOCCOCCCNc4cccc5c4C(=O)N(C4CCC(=O)NC4=O)C5=O)cc3)C[C@@]21C (stereo partly shown) [Example 3] : concentration at 24 h value = 440

###

# METHOD_NOTES: Single dose intraperitoneal pharmacokinetics in CD-1 mice, plasma concentration by HPLC-MS
# Assay type: in vivo
# CONDITIONS_USED: female, CD-1, mouse, ip, 10 mg/kg, 0.5 hr, 10 mg/kg IP, CD-1 mice, n=3, read-out: Mean concentration
QUANTITY: concentration at 0.5 h

For reference, reported concentration at 0.5 h for CC#C[C@]1(O)CC[C@H]2[C@@H]3CCC4=CC(=O)CCC4=C3[C@@H](c3ccc(N(C)CCCC(=O)N4CCN(C(=O)OC(C)(C)C)CC4C(=O)N4CCN(C(=O)OC(C)(C)C)CC4C(=O)NCCCOCCOCCOCCCNc4cccc5c4C(=O)N(C4CCC(=O)NC4=O)C5=O)cc3)C[C@@]21C (stereo partly shown) stands at 773 nM

###

# METHOD_NOTES: Single dose intraperitoneal pharmacokinetics in CD-1 mice, plasma concentration by HPLC-MS
# Format: in vivo
# CONDITIONS_USED: female, CD-1, mouse, ip, 10 mg/kg, 8 hr, 10 mg/kg IP, n=3, read-out: Mean concentration
QUANTITY: concentration at 8 h (nM)
Give just the numeric value; nM need not be written.

Reported concentration at 8 h of CC#C[C@]1(O)CC[C@H]2[C@@H]3CCC4=CC(=O)CCC4=C3[C@@H](c3ccc(N(C)CCCC(=O)N4CCN(C(=O)OC(C)(C)C)CC4C(=O)N4CCN(C(=O)OC(C)(C)C)CC4C(=O)NCCCOCCOCCOCCCNc4cccc5c4C(=O)N(C4CCC(=O)NC4=O)C5=O)cc3)C[C@@]21C (stereo partly shown) : 2830

###

# METHOD_NOTES: Single dose intraperitoneal pharmacokinetics in CD-1 mice, plasma concentration by HPLC-MS
# Assay type: in vivo
# CONDITIONS_USED: female, CD-1, mouse, ip, 10 mg/kg, 4 hr, 10 mg/kg IP, CD-1 mice, individual animals, read-out: Individual concentration
QUANTITY: concentration at 4 h (µM)
Give just the numeric value; µM need not be written.

The reported concentration at 4 h of the compound CC#C[C@]1(O)CC[C@H]2[C@@H]3CCC4=CC(=O)CCC4=C3[C@@H](c3ccc(N(C)CCCC(=O)N4CCN(C(=O)OC(C)(C)C)CC4C(=O)N4CCN(C(=O)OC(C)(C)C)CC4C(=O)NCCCOCCOCCOCCCNc4cccc5c4C(=O)N(C4CCC(=O)NC4=O)C5=O)cc3)C[C@@]21C (stereo partly shown) was 3.3

###

# METHOD_NOTES: Single dose intraperitoneal pharmacokinetics in CD-1 mice, plasma concentration by HPLC-MS
# Format: in vivo
# CONDITIONS_USED: female, CD-1, mouse, ip, 10 mg/kg, 0.25 hr, 10 mg/kg IP, CD-1 mice, n=3
QUANTITY: concentration at 0.25 h (nM)
Expressed in nM, but write only the number.

Lab book: concentration at 0.25 h of CC#C[C@]1(O)CC[C@H]2[C@@H]3CCC4=CC(=O)CCC4=C3[C@@H](c3ccc(N(C)CCCC(=O)N4CCN(C(=O)OC(C)(C)C)CC4C(=O)N4CCN(C(=O)OC(C)(C)C)CC4C(=O)NCCCOCCOCCOCCCNc4cccc5c4C(=O)N(C4CCC(=O)NC4=O)C5=O)cc3)C[C@@]21C (stereo partly shown) [Example 3] noted as 183
